Molecular target: T1, recombinant CD47-Fc (Sino Biologics) (human, UniProt Q08722 19-139)
T1 construct: Bought reagent; also called human CD47-Fc; not shown: Fc
Assay: competition ELISA: HIS-tagged SIRP α binding to plate-bound CD47-Fc, antibody titrated
pIC50: −log10 of the molar value.
Recorded pIC50, one value per entry.

binder	pIC50
anti-CD47 AlivaMab antibody 153 (antibody, IgG1, V domains shown, Chimeric AlivaMab Mouse mAb from hybridoma: human V, CH1 and upper hinge, mouse middle hinge, CH2 and CH3, human kappa light chain; also called clone 153; mAb 153) VH: QVQLQESGPGLVKPSETLSLTCTVSGGSINYYYWSWIRQPPGKGLEWIGYIYYSGSTNYNPSLKSRVTISVDTSKNQFSLKLSSVTAADTAVYYCARKRSSYDYWGQGTLVTVSS VL: DIQMTQSPSAMSASVGDRVTITCRASQGISNYLAWFQQKPGKVPRRLIYAASSLQSGVPSRFSGSGSGTEFTLTISSLQPEDFATYYCLQHNSYPWTFGQGTKVEIK	7.55
anti-CD47 AlivaMab antibody 91 (antibody, IgG1, V domains shown, Chimeric AlivaMab Mouse mAb from hybridoma: human V, CH1 and upper hinge, mouse middle hinge, CH2 and CH3, human kappa light chain; also called clone 91; mAb 91) VH: QVQLQESGPGLVKPSETLSLTCTVSGGSISTYYWSWIRQPPGKGLEWIGYIYYSGTTNYNPSLKSRVTISVDTSKNQFSLKLSSVTAADTAVYYCARKRDAFDIWGQGTMVTVSS VL: EIVLTQSPGTLSLSPGERATLSCRASQSVSSTYLAWSQQKPGQAPRLLIYGASSRATGIPDRFSGSGSGTDFTLTISRLEPEDFAVYYCQQYGSSRTFGQGTKVEIK	8.68
anti-CD47 AlivaMab antibody 5 (antibody, IgG1, V domains shown, Chimeric AlivaMab Mouse mAb from hybridoma: human V, CH1 and upper hinge, mouse middle hinge, CH2 and CH3, human kappa light chain; also called clone 5; mAb 5) VH: QVQLQESGPGLVKPSETLSLTCTVSGGSISSYYWSWIRQPPGKGLEWIGYIYYSGSTNYNPSLKSRVTISVDTSKNQFSLKLSSVTAADTAVYYCARGKGGTDYWGQGTLVTVSS VL: DIQMTQSPSSVSASVGDRVTITCRASQGISSWLAWYQQKPGKAPKLLIYAASSLQSGVPSRFSGSGSGTDFTLTISSLQPEDFATYYCQQANSFPRTFGQGTKVEIK	8.46
